The origin of these recorded values is patent US20220380319A1.

Recorded IC50, one value per entry.
- Assayed Target: acid ceramidase (Homo sapiens)
- Construct: Cell lysates overexpressing acid ceramidase were used as the enzyme source; expressed in transfected cells
- Assay Text: Acid ceramidase inhibition, biochemical fluorescent assay with cell lysates overexpressing acid ceramidase, substrate Rbm14-12
- Condition Info: substrate Rbm14-12 6.3 μM, pH 4.5, 1 hr preincubation at RT

Example results:
{"columns": ["Compound", "Readout Name", "Data Value"],
 "data": [
  ["Cn1c(=O)n(C(=O)NCCc2ccccc2)c2cc(-c3cncnc3)ccc21 [Example 32a]", "IC50", "> 1000 nM"],
  ["COc1nc2ccc(N3CCOCC3)cc2n1C(=O)NCCCCc1ccccc1 [Example 133a]", "IC50", "< 200 nM"],
  ["CN1CCN(c2cccc3c2ncn3C(=O)NCc2ccc3c(c2)OCO3)CC1", "IC50", "< 200 nM"],
  ["CCCCNC(=O)n1cnc2cc(OC(F)(F)F)ccc21 [Example 70b]", "IC50", "< 200 nM"],
  ["CCCCCNC(=O)n1cnc2ccccc21", "IC50", "< 200 nM"]
]}

Qu. Recall the reported IC50 of COc1nc2cc(F)c(N3CCOCC3)cc2n1C(=O)NCCOc1ccccc1 [Example 335a] when tested on acid ceramidase (Homo sapiens).
Ans. < 200 nM

Qu. Recall the reported IC50 of CCOc1nc2c(F)cccc2n1C(=O)NCCc1ccccc1 when tested on acid ceramidase (Homo sapiens).
Ans. < 200 nM

----------
- Assay Text: Compound solubility in water
Readout Name: solubility (µg/mL)
Express the result in µg/mL but write the number alone.

{"columns": ["Compound", "Result Unit", "solubility"],
 "data": [
  ["CC(C)CCNC(=O)n1cnc2c(N3CCN4CCOC[C@H]4C3)cccc21", "µg/mL", 31],
  ["O=C(NCCC1CCC(F)(F)C1)n1cnc2c(N3CCN4CCCC4C3)cccc21 (centres unmarked)", "µg/mL", 28],
  ["COc1cc(N2CCOCC2)cc2c1ncn2C(=O)NCCc1ccccc1", "µg/mL", 16.3],
  ["CC(C)CCNC(=O)n1cnc2c(N3CCN(C)C4(CC4)C3)cccc21", "µg/mL", 27]
]}

Qu. State, in one line, measured solubility of CC(C)C#CCNC(=O)n1cnc2c(N3CCN(CCF)CC3)cccc21
Ans. 22

----------
- Assayed Target: acid ceramidase (Homo sapiens, UniProt Q13510)
- Construct: Cell lysates overexpressing acid ceramidase were used as the enzyme source; expressed in transfected cells
- Assay Text: Acid ceramidase inhibition, biochemical fluorescent assay with cell lysates overexpressing acid ceramidase, substrate Rbm14-12
- Condition Info: substrate Rbm14-12 6.3 μM, pH 4.5, 1 hr preincubation at RT
pIC50: −log10 of the molar value.
Readout Name: pIC50

Example results:
{"columns": ["Compound", "pIC50"],
 "data": [
  ["CCCCNC(=O)n1cnc2cc(N3CCC(N4CCN(C)CC4)CC3)ccc21 [Example 102b]", "6.00 to 6.70"],
  ["O=C(NCCc1ccccc1)n1cnc2cc(C(F)(F)F)ccc21 [Example 26a]", "> 6.70"],
  ["CCCCNC(=O)n1cnc2c(F)cccc21", "> 6.70"],
  ["CNC1CN(c2cccc3c2ncn3C(=O)NCCOc2ccccc2)C1", "< 6.00"],
  ["O=C(NCCc1ccccc1)n1cnc2ccccc21", "> 6.70"]
]}

Qu. State, in one line, measured pIC50 of CCCCNC(=O)n1c(OC(C)C)nc2ccccc21
Ans. < 6.00

Qu. State, in one line, measured pIC50 of CC(C)CNC(=O)n1cnc2ccc(-c3cncs3)cc21 [Example 126b]
Ans. 6.00 to 6.70

Qu. State, in one line, measured pIC50 of CN1CCN(C2CN(c3cccc4c3ncn4C(=O)NCC#CC(C)(C)C)C2)CC1
Ans. > 6.70

Qu. State, in one line, measured pIC50 of CC(C)C#CCNC(=O)n1cnc2c(N3CC(N(C)C)C3)cccc21
Ans. 6.00 to 6.70

Qu. State, in one line, measured pIC50 of CC(C)CNC(=O)n1c(=O)n(C)c2ccc(-c3cccnc3)cc21
Ans. < 6.00

Qu. State, in one line, measured pIC50 of O=C(NCCc1ccccc1)n1c(Oc2ccccc2)nc2ccccc21
Ans. > 6.70

Qu. State, in one line, measured pIC50 of CCCCNC(=O)n1c(OC(C)C)nc2c(OC)cccc21 [Example 97a]
Ans. 6.00 to 6.70

Qu. State, in one line, measured pIC50 of COc1nc2cc(-c3cncnc3)ccc2n1C(=O)NCCc1ccccc1 [Example 31b]
Ans. > 6.70

Qu. State, in one line, measured pIC50 of N#Cc1cccc2c1ncn2C(=O)NCCCOc1ccccc1
Ans. > 6.70

----------
- Assay Text: Compound solubility in water
Readout Name: solubility (µg/mL)
Express the result in µg/mL but write the number alone.

Example results:
{"columns": ["Compound", "Data Value"],
 "data": [
  ["COc1nc2c(C3CCN(C)CC3)cccc2n1C(=O)NCCc1ccccc1", 27],
  ["COc1nc2c(N3CC(N4CCN(C)CC4)C3)cccc2n1C(=O)NCCOc1ccccc1", 38],
  ["COc1nc2cc(N3CCOCC3)ccc2n1C(=O)NCCCOC(F)(F)F [Example 233b]", 29]
]}

Qu. State, in one line, measured solubility of CN1CCN(c2cccc3c2ncn3C(=O)NCCCc2ccccc2)CC1CF (centres unmarked)
Ans. 18

Qu. State, in one line, measured solubility of CN1CCCN(c2cccc3c2ncn3C(=O)NCCCc2ccccc2)CC1
Ans. 21

----------
- Assayed Target: acid ceramidase (Homo sapiens, UniProt Q13510)
- Construct: Cell lysates overexpressing acid ceramidase were used as the enzyme source; expressed in transfected cells
- Assay Text: Acid ceramidase inhibition, biochemical fluorescent assay with cell lysates overexpressing acid ceramidase, substrate Rbm14-12
- Condition Info: substrate Rbm14-12 6.3 μM, pH 4.5, 1 hr preincubation at RT
Recorded IC50, one value per entry.

Qu. Recall the reported IC50 of CN1CCC(c2cccc3c2ncn3C(=O)NCCc2ccccc2)CC1 [Example 12] when tested on acid ceramidase (Homo sapiens, UniProt Q13510).
Ans. < 200 nM

Qu. Recall the reported IC50 of CCCCNC(=O)n1cnc2c(C3CCN(C)CC3)cc(OC)cc21 [Example 58] when tested on acid ceramidase (Homo sapiens, UniProt Q13510).
Ans. 200 to 1000 nM

Qu. Recall the reported IC50 of O=C(NCCc1ccccc1)n1cnc2ccc(N3CCCCC3)cc21 [Example 13b] when tested on acid ceramidase (Homo sapiens, UniProt Q13510).
Ans. < 200 nM

Qu. Recall the reported IC50 of CCCCNC(=O)n1cnc2ccc(N3CCC(N4CCN(C)CC4)CC3)cc21 [Example 102a] when tested on acid ceramidase (Homo sapiens, UniProt Q13510).
Ans. < 200 nM

Qu. Recall the reported IC50 of COc1c(N2CCOCC2)ccc2c1ncn2C(=O)NCCc1ccccc1 [Example 40] when tested on acid ceramidase (Homo sapiens, UniProt Q13510).
Ans. < 200 nM

Qu. Recall the reported IC50 of O=C(NCCCOc1ccccc1)n1cnc2ccccc21 [Example 43] when tested on acid ceramidase (Homo sapiens, UniProt Q13510).
Ans. < 200 nM

Qu. Recall the reported IC50 of CC(C)CCNC(=O)n1cnc2ccc(-c3cncnc3)cc21 [Example 103a] when tested on acid ceramidase (Homo sapiens, UniProt Q13510).
Ans. < 200 nM

Qu. Recall the reported IC50 of CN1CCC(c2c(C(F)(F)F)ccc3c2ncn3C(=O)NCCc2ccccc2)CC1 [Example 55] when tested on acid ceramidase (Homo sapiens, UniProt Q13510).
Ans. < 200 nM

Qu. Recall the reported IC50 of CC(C)CCNC(=O)n1cnc2c(N3CCC(F)(F)CC3)cccc21 [Example 143] when tested on acid ceramidase (Homo sapiens, UniProt Q13510).
Ans. 200 to 1000 nM

Qu. Recall the reported IC50 of COc1nc2c(N3CCOCC3)cccc2n1C(=O)NCCC(C)C [Example 146] when tested on acid ceramidase (Homo sapiens, UniProt Q13510).
Ans. > 1000 nM

----------
Recorded IC50, one value per entry.
- Assayed Target: acid ceramidase (Homo sapiens, UniProt Q13510)
- Construct: Cell lysates overexpressing acid ceramidase were used as the enzyme source; expressed in transfected cells
- Sequence (Q13510 22-395): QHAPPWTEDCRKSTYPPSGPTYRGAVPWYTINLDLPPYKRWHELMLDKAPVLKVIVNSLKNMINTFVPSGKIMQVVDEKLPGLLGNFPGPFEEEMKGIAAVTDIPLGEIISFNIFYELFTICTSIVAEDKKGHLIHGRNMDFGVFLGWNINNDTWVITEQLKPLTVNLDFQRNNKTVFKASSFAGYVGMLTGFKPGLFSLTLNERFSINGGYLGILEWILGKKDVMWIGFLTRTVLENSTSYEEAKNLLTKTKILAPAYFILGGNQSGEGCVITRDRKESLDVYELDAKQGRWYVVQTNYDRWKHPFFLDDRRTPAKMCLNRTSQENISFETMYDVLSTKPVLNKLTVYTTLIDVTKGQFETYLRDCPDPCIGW
- Assay Text: Acid ceramidase inhibition, biochemical fluorescent assay with cell lysates overexpressing acid ceramidase, substrate Rbm14-12
- Condition Info: substrate Rbm14-12 6.3 μM, pH 4.5, 1 hr preincubation at RT

Example results:
{"columns": ["Molecule", "Assayed Target", "IC50"],
 "data": [
  ["CN1CC2CC1CN2C1CN(c2cccc3c2ncn3C(=O)NCCOc2ccccc2)C1 (centres unmarked) [Example 356]", "acid ceramidase (Homo sapiens, UniProt Q13510)", "< 200 nM"],
  ["COc1nc2ncccc2n1C(=O)NCCCOc1ccccc1 [Example 129]", "acid ceramidase (Homo sapiens, UniProt Q13510)", "< 200 nM"],
  ["O=C(NCCCC(F)(F)F)n1cnc2ccccc21 [Example 80]", "acid ceramidase (Homo sapiens, UniProt Q13510)", "< 200 nM"],
  ["CN1CCC(c2cccc3c2ncn3C(=O)NCCCc2ccccc2)CC1 [Example 44]", "acid ceramidase (Homo sapiens, UniProt Q13510)", "< 200 nM"],
  ["CC(C)CCNC(=O)n1cnc2c(N3CCN(C4CCOCC4)CC3)cccc21 [Example 155]", "acid ceramidase (Homo sapiens, UniProt Q13510)", "200 to 1000 nM"]
]}

Qu. Recall the reported IC50 of CCCCNC(=O)n1cnc2ccc(C(F)(F)F)cc21 [Example 49b] when tested on acid ceramidase (Homo sapiens, UniProt Q13510).
Ans. < 200 nM

Qu. Recall the reported IC50 of O=C(NCCOc1ccccc1)n1cnc2c(F)cccc21 [Example 73] when tested on acid ceramidase (Homo sapiens, UniProt Q13510).
Ans. < 200 nM

Qu. Recall the reported IC50 of O=C(NCCc1ccccc1)n1c(=O)[nH]c2cccnc21 [Example 124] when tested on acid ceramidase (Homo sapiens, UniProt Q13510).
Ans. > 1000 nM
